Tested on: SW-620 colon
assay.comment: NCI tumour cell line growth inhibition, 48 h
value.type: TGI

Some entries whose results are on file:
>  <compound>
CCOC/N=C(/N)NC#N

>  <recorded.value>
35.3 µM

$$$$
>  <compound>
CC(=O)NCCCCNCCCNC(C)=O

>  <recorded.value>
> 100 µM

$$$$
>  <compound>
CCC(C)[C@H](NC(=O)N[C@H](C)c1ccccc1)C(=O)OC (some centres not stated)

>  <recorded.value>
> 100 µM

$$$$

Note to self: TGI recorded for COc1ccc(N2C=Nn3c(nc4sc(C)c(C)c4c3=O)C2)cc1 was > 100 µM

Note to self: TGI recorded for O=c1[nH]nc(Cc2ccccc2)n1/N=C/c1c[nH]c2ccccc12 was > 100 µM

Note to self: TGI recorded for Cc1nc2ccc(S(=O)(=O)Nc3ccc(Cl)cc3)cc2c(=O)n1NC(=O)CNc1ccc(Cl)cc1 was > 100 µM

* * *

System: SR leukemia
assay.comment: NCI tumour cell line growth inhibition, 48 h
value.type: TGI

Some entries whose results are on file:
>  <molecule>
CCC(CCCN)Nc1cc(OC)cc2cccnc12 (stereo unspecified)

>  <TGI>
> 100 µM

$$$$
>  <molecule>
C=CC[C@H]1[C@@H](O[Si](C)(C)C(C)(C)C)[C@H](n2ccc(=O)[nH]c2=O)O[C@@H]1CO[Si](C)(C)C(C)(C)C

>  <TGI>
5.95 µM

$$$$
>  <molecule>
COC1C(O)CC(OC2C(C)OC(Oc3cc(O)c4c(O)c5c(cc4c3)C[C@@H]([C@H](OC)C(=O)[C@@H](O)[C@@H](C)O)[C@H](OC3CC(OC4CC(OC6CC(C)(O)C(O)C(C)O6)C(O)C(C)O4)C(O)C(C)O3)C5=O)CC2OC(C)=O)OC1C (stereo partly specified)

>  <TGI>
> 100 µM

$$$$
>  <molecule>
CC(C)C[C@H](NC(=O)[C@H](Cc1cccc2ccccc12)NC(=O)N1CCOCC1)B(O)O

>  <TGI>
0.013 µM

$$$$

Form field TGI for item Cn1c(=O)c2c(nc(NCCCCl)n2CC(=O)O)n(C)c1=O on SR leukemia: > 100 µM

Form field TGI for item CC(C)(CN)CN on SR leukemia: > 100 µM

Form field TGI for item O=C(Nc1ccccc1)O/N=C(/CBr)c1ccccc1 on SR leukemia: 44.2 µM

Form field TGI for item c1ccc2c(-c3cnc(-c4c[nH]c5ccccc45)cn3)c[nH]c2c1 on SR leukemia: > 100 µM

Form field TGI for item Cc1ccc([N+](=O)[O-])cc1S(=O)(=O)Nc1ccc(C2=NN(c3ccc([N+](=O)[O-])cc3[N+](=O)[O-])C(c3ccccc3)C2)cc1 (stereo unspecified) on SR leukemia: 90 µM

Form field TGI for item CC(=O)NNc1nc(C)c(C(/C=C/c2ccc3c(c2)OCO3)=N/Nc2ccccc2)s1 on SR leukemia: > 100 µM

Form field TGI for item CCCCOC(=O)CNC(=O)OCCCCC#CC#CCCCCOC(=O)NCC(=O)OCCCC on SR leukemia: > 100 µM

* * *

Test system: SK-OV-3 ovarian
assay.comment: NCI tumour cell line growth inhibition, 48 h
value.type: TGI

Some entries whose results are on file:
>  <compound>
O=[N+]([O-])c1ccc(C(c2c[nH]c3ccccc23)c2c[nH]c3ccccc23)cc1

>  <TGI>
33.1 µM

$$$$
>  <compound>
COC(=O)C12Oc3ccc(-c4ccc5c(c4O)C(=O)C4=CCC(C)C(O)C4(C(=O)OC)O5)c(O)c3C(=O)C1=CCC(C)C2O (configuration not stated)

>  <TGI>
6.71 µM

$$$$
>  <compound>
CCOc1ccccc1NC(=O)C(=O)CC(=O)c1c(C)n([O-])c2ccccc2[n+]1=O

>  <TGI>
> 100 µM

$$$$
>  <compound>
COc1cc(-c2nn(-c3ccc(NC(=O)c4ccc(Cl)c(Cl)c4)cc3)cc2-c2ccncc2)ccc1Cl

>  <TGI>
> 100 µM

$$$$
>  <compound>
CC(=O)C1CC(C)=CCC12C(=O)Nc1ccccc12 (configuration not stated)

>  <TGI>
> 100 µM

$$$$

Form field TGI for item COc1cccc(N2C(=O)C3c4[nH]c5ccccc5c4C4c5ccccc5CCC4C3C2=O)c1 (configuration not stated) on SK-OV-3 ovarian: > 7.28 µM

Form field TGI for item Cc1ccc(C(=O)N(C2CCCCC2)C2CCCCC2)cc1N=NN(C)C on SK-OV-3 ovarian: 33.5 µM

* * *

System: NCI-H23 lung
assay.comment: NCI tumour cell line growth inhibition, 48 h
Non-standard residues stand in square brackets, D forms with d. Residues, ends and D or L forms follow the SMILES beside them. *: point of attachment. ONb = O=[N+]([O-])c1ccc(CO*)cc1; AllylGly = C=CC[CH](N)C(=O)O; Boc = CC(C)(C)OC(=O)*
value.type: TGI

Some entries whose results are on file:
>  <molecule>
COC(=O)Cc1ccc2c(c1)Sc1ccc(CC(=O)OC)cc1N2C

>  <TGI>
> 77.9 µM

$$$$
>  <molecule>
COc1ccc2[nH]c3c(c2c1)CCN(C)CC3

>  <TGI>
> 100 µM

$$$$
>  <molecule>
Cn1ccnc1Sc1ccc(/C=N/NC(=O)c2ccccc2O)cc1[N+](=O)[O-]

>  <TGI>
> 100 µM

$$$$

Form field TGI for item CC(C)(CN)CN on NCI-H23 lung: > 100 µM

Form field TGI for item C=CCC(NC(=O)OC(C)(C)C)C(=O)NC(CCC(=O)OCc1ccc([N+](=O)[O-])cc1)C(N)=O (stereo not given) (Boc-[AllylGly]-Glu(ONb)-NH2; configuration not given here) on NCI-H23 lung: 91.8 µg/mL

* * *

System: MCF7 breast
assay.comment: NCI tumour cell line growth inhibition, 48 h
value.type: GI50

Some entries whose results are on file:
>  <compound>
COc1cc(O)c([C@@H]2C[C@H](CCc3ccc(O)cc3)O[C@H](c3ccc(O)cc3)C2)c(O)c1C(=O)/C=C/c1ccc(O)cc1

>  <GI50>
1960 nM

$$$$
>  <compound>
CC(=O)O[C@H]1CC[C@@]2(C)C(=CC[C@@H]3[C@@H]2CC[C@]2(C)C(c4cccnc4)=CC[C@@H]32)C1

>  <GI50>
4840 nM

$$$$
>  <compound>
C=C1CC2(OC1=O)C(=O)N(CCCCCCCN1C(=O)C3(CC(=C)C(=O)O3)c3ccccc31)c1ccccc12 (configuration not stated)

>  <GI50>
1350 nM

$$$$
>  <compound>
O=C(Nc1ccc(N2CCNCC2)cc1)c1[nH]ncc1Nc1ncnc2sc3c(c12)CCC3

>  <GI50>
166 nM

$$$$

Note to self: GI50 recorded for Cc1ccc2[nH]cc(-c3nc(-c4c[nH]c5ncccc45)cs3)c2c1 was > 100000 nM

Note to self: GI50 recorded for O=C(CCCCCCSc1nc(-c2ccccc2)cc(-c2ccc(Cl)cc2)n1)NO was 1950 nM

Note to self: GI50 recorded for COc1ccc2nc(N/N=C(\C)c3ccccn3)cc(C)c2c1 was 288 nM

* * *

Test system: M14 melanoma
assay.comment: NCI tumour cell line growth inhibition, 48 h
value.type: TGI (µM)
Answer with a number only, understood to be in µM.

>  <compound>
CNC(=O)c1cc(OC2CCC(NC(=O)Nc3ccc(Cl)c(C(F)(F)F)c3)CC2)ccn1 (stereo not given)

>  <recorded.value>
20.6

$$$$
>  <compound>
CCCC/C=C1\CCC(CN2CCCCC2)C1=O (stereo not given)

>  <recorded.value>
24.4

$$$$

Here's the next entry for you.
Form field TGI for item CCN(CC)CCOc1nc2ccc(OC)cc2c2c1-c1ccc(OC)cc1C2=O on M14 melanoma: 3.1

* * *

Known TGI of a selection of molecules
Test system: LOX IMVI melanoma
assay.comment: NCI tumour cell line growth inhibition, 48 h
Answer with a number only, understood to be in µM.

>  <molecule>
CC(C)(C)OC(=O)n1cc(C2CNC(=O)C23CCC(=O)N3Cc2ccccc2)c2ccccc21 (stereo unspecified)

>  <TGI / µM>
44

$$$$
>  <molecule>
COc1ccc2c(c1)[nH]c(=O)c1c3cc(C)c(C)cc3cn21

>  <TGI / µM>
1.66

$$$$

Here's the next entry for you.
Note to self: TGI recorded for COc1cc(O)c([C@@H]2C[C@H](CCc3ccc(O)cc3)O[C@H](c3ccc(O)cc3)C2)c(O)c1C(=O)/C=C/c1ccc(O)cc1 was 3.63

* * *

Tested on: OVCAR-4 ovarian
assay.comment: NCI tumour cell line growth inhibition, 48 h
Known TGI of a selection of molecules

>  <molecule>
Cc1ccc(F)cc1NC(=O)O/N=C(\Cl)C(C)C

>  <value.type>
TGI

>  <recorded.value>
33.1 µM

$$$$

Note to self: TGI recorded for CC(=O)C1CC(C)=CCC12C(=O)Nc1ccccc12 (stereo unspecified) was > 100 µM

Note to self: TGI recorded for COc1cc(OC)c2c(O)cc(CC(C)O)cc2c1 (stereo unspecified) was > 100 µM

Note to self: TGI recorded for CCc1cccc(C(C)C)c1NC(=O)C(=O)C(Cc1nc2ccccc2[nH]c1=O)C(=O)OC (stereo unspecified) was > 100 µM

Note to self: TGI recorded for Cc1cnoc1NC1=CC(=O)C(=O)c2ccccc21 was > 100 µM

Note to self: TGI recorded for COc1ccc2c(c1)OC(c1cccnc1)C(c1ccccc1)C2=O (stereo unspecified) was > 100 µM

meta.source: PubChem BioAssay (NCI)
